Molecular target: IRAK4 (Homo sapiens)
Construct: Degradation of IRAK4 in OCI-LY10 was quantitatively measured using Meso Scale Discovery technology; endogenous in cells; host or cells: OCI-LY10
Sequence (Q9NWZ3 1-460): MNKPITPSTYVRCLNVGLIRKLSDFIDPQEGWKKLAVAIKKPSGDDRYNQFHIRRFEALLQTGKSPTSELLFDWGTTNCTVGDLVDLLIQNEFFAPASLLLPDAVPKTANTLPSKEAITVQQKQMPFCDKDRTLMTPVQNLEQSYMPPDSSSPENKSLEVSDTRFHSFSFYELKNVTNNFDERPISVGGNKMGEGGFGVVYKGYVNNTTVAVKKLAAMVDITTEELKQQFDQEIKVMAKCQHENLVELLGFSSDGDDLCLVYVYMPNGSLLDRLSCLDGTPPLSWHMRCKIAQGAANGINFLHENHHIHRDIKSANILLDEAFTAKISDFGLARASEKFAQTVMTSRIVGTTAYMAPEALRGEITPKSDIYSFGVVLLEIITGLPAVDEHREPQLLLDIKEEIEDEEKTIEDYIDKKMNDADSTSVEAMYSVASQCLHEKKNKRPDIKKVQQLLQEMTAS
Assay: IRAK4 MSD Degradation in OCI-LY10
Type: cell-based
Settings: OCI-LY10 cells, 24 hrs incubation, MSD; read-out: IRAK4 degradation in OCI-LY10 at 24 hrs: DC50
measured-endpoint: DC50

COc1cc2nn([C@H]3CC[C@H](CN4CC(c5cccc6c5n(C)c(=O)n6C5CCC(=O)NC5=O)C4)CC3)cc2cc1NC(=O)c1nc(C(C)(C)F)ccc1OC (some centres unmarked)	> 0.2 µM
COc1cc2nn([C@H]3CC[C@H](CN4CCC5(CC4)CCN(c4c(F)ccc6c4n(C)c(=O)n6C4CCC(=O)NC4=O)CC5)CC3)cc2cc1NC(=O)c1cncc(C#N)c1 (some centres unmarked)	> 0.2 µM
O=C1CCN(c2cncc3c(C#CCO[C@H]4CCN(C[C@H]5CC[C@H](n6cc(NC(=O)c7cnn8ccc(N9C[C@H]%10C[C@@H]9CO%10)nc78)c(C(F)F)n6)CC5)C[C@H]4F)cccc23)C(=O)N1	> 0.2 µM
CO[C@H]1CN(c2cccc3c2n(C)c(=O)n3C2CCC(=O)NC2=O)CC[C@H]1N(C)C[C@H]1CC[C@H](n2cc3cc(NC(=O)c4cccc(C(F)(F)F)n4)ccc3n2)CC1 (some centres unmarked)	> 0.2 µM
CN(C[C@H]1CC[C@H](n2cc(NC(=O)c3cnn4ccc(N5C[C@H]6C[C@@H]5CO6)nc34)c(C(F)F)n2)CC1)C1CCN(c2cccc3c2n(C)c(=O)n3C2CCC(=O)NC2=O)CC1(F)F (some centres unmarked)	> 0.2 µM

Q: Input CO[C@@H]1CN(c2cccc3c2n(C)c(=O)n3C2CCC(=O)NC2=O)C[C@@H]1N(C)C[C@H]1CC[C@H](n2cc3cc(NC(=O)c4cccc(C(F)(F)F)n4)ccc3n2)CC1 (some centres unmarked) , output reported DC50.
Ans: > 0.2 µM

Q: Return reported DC50. Input molecule: Cn1c(=O)n(C2CCC(=O)NC2=O)c2cccc(N3CC(F)(F)C34CN(C[C@H]3CC[C@H](n5cc6cc(NC(=O)c7cccc(C(F)(F)F)n7)c(C#N)cc6n5)CC3)C4)c21 (some centres unmarked)
Ans: > 0.2 µM

Q: Return reported DC50. Input molecule: Cn1c(=O)n(C2CCC(=O)NC2=O)c2cccc(N3CC(O[C@@H]4CCN(C[C@H]5CC[C@H](n6cc(NC(=O)c7cnn8ccc(N9C[C@H]%10C[C@@H]9CO%10)nc78)c(C(F)F)n6)CC5)C[C@H]4F)C3)c21 (some centres unmarked) [I-732]
Ans: < 0.01 µM

Q: Quick one: give measured DC50 for Cn1c(=O)n(C2CCC(=O)NC2=O)c2cccc(C3=CCN(C[C@H]4CC[C@H](n5cc6cc(NC(=O)c7cccc(C(F)(F)F)n7)ccc6n5)CC4)CC3F)c21 (some centres unmarked) [I-457]
Ans: > 0.2 µM

Q: Identify DC50 associated with the molecule Cn1c(=O)n(C2CCC(=O)NC2=O)c2cccc(C#CCN3CCN(C[C@H]4CC[C@H](n5cc(NC(=O)c6cccc(C#N)n6)c(C(C)(C)O)n5)CC4)CC3)c21 (some centres unmarked)
Ans: > 0.2 µM
